system tested: Tubulin
protocol: Inhibition of tubulin polymerization (unknown origin) preincubated for 15 mins followed by PEG and GTP addition measured after 30 mins by spectrophotometric method
parameter measured: IC50

chemical smiles | result
COc1ccc(CNC(=O)c2cc(F)ccc2N2CCOCC2)cc1/C=C/C(=O)NO | 4.06 µM
